experiment: soluble on expression in E. coli; label from the status in PepcDB or PDB records
endpoint-name: soluble on expression in E. coli

Example cases with answers are listed next.
[
  {
    "chain": "MGSDKIHHHHHHMSAAVERSPEEKRVIPVALSSASVYPLSVHDAFAVAQDLGFDGVEVMVTNNATSQSPHSLLELSHRYRQPIVSIHAPTLLLTQKVWGSAWNKIEMSCRMAREVGCGTVVVHPPFRWQNNYAENFPAGIRQLADMYQVRIAVENMYPWRVRGRETVAYLPHWDPLGQDYDDVTWDFSHAATAGANSVEAIKALGGKLRHIHLTDGSGSGRDEHLIPGRGNQGCAEALQHLAGSGFDGVVVAEISTRRAKFAGERELWLNETLKFARQHLSHPLVGAREA",
    "soluble on expression in E. coli": "not soluble"
  },
  {
    "chain": "MIIREATVQDYEEVARLHTQVHEAHVKERGDIFRSNEPTLNPSFFQAAVQGEKSTVLVFVDEREKIGAYSVIHLVQTPLLPTMQQRKTVYISDLCVDETRRGGGIGRLIFEAIISYGKAHQVDAIELDVYDFNDRAKAFYHSLGMRCQKQTMELPLLEHHHHHH",
    "soluble on expression in E. coli": "soluble"
  },
  {
    "chain": "MNPKIVFFDIDDTLYRKYTDTLRPSVKTAVAALRGKGILTALATGRSLATIPEKVRDMMAEAGMDAVVTINGQFALLHGKTVREVPMDAGLMGRVCAHLDGLGMDYAFVGGEGIAVSALSECVCRALKHIASDFFADKDYFSSKPVYQMLVFAEENEMPL",
    "soluble on expression in E. coli": "not soluble"
  },
  {
    "chain": "MINMKFFNRVEEIKEILSILEEEPNLIYFIYGPINSGKTALINEIINNRLDKNKYVVFYIDLREIFISKYDEFEAKLRATKTFGFRLIIEVLFEEYEDDKKPIEIIRSLIKDAPSLCGIPTPKNTLEEILKKKTTKNVFKYITNILMDIKREGKQPIIIIDELQKIGDMKINGFLIYELFNYFVSLTKHKHLCHVFCLSSDSLFIERVYNEAMLKERVDYILVDDFDKETALKFIDFLSEEILNKKLSDEDKELIYSYVGGKPILIINVIGKLKHKNLKDVLNILLMDEISKLKDFLSNLDYIKPKVNIEEEIIEIRKEDIINALKLFKGKYEIEVDKIPKAVYVYLVKKNILFLYPQRGTLKPQSFLVWNAIKRVL",
    "soluble on expression in E. coli": "not soluble"
  },
  {
    "chain": "MVRIEVIDIEKPEGVEVIIGQGNFSIFTVDDLARALLTAVPGIKFGIAMNEAKPQLTRYTGNDPELEALAAKNAVKIGAGHVFVILMKNAYPINVLNTIKNHPAVAMIYGASENPFQVIVAETELGRAVIGVVDGKAANKIETDEQKKERRELVEKIGYKID",
    "soluble on expression in E. coli": "soluble"
  }
]

Then this sequence:
Report soluble on expression in E. coli, nothing else, for this sequence: MRQGFPYARPGQVIGLFGGSFDPPHAGHVHVTREALKMFGLDRVWWLVTPGNPLKAHGPAPLDRRMEAARAMMRHPRVDVTDIEAHLGTRVTADTIAALRRIYPRVRFVWLMGADNLAQLHRWKDWRQIIETVPVGVLARPGDRISARMSPAARAYAPYRIDGQARHLLGRAEAPAWCFVNVPMVDVSSTRIRAAGGWSAAQQGRGQTGTQDQ
not soluble
